- Test system: LOX IMVI
- testProtocol: NCI tumour cell line growth inhibition, 48 h
Activity calls are given as the source filed them. No stated cut-off is given here; in the data, active = GI50 up to about 1.1 µM and inactive = higher.
Outcomes: 1.0 for active, 0.0 for inactive

{"molecule": "CC(=O)Nc1ccc2cc(C#N)c(=O)[nH]c2n1", "assignedCategory": 0.0}
{"molecule": "O=C(/C=C/c1ccccc1)CSc1nc2ccc(I)cc2c(=O)n1Cc1ccccc1", "assignedCategory": 0.0}
{"molecule": "COc1cc(C2C(C(=O)O)=C(COC(C)=O)Oc3cc4c(cc32)OCO4)cc(OC)c1OC (stereo unspecified)", "assignedCategory": 0.0}
{"molecule": "C(=N\\N=C1NCCCN1)/c1ccc2ccccc2c1", "assignedCategory": 0.0}
{"molecule": "C[Si](C)(C)C#Cc1cc(-c2nc3ccccc3s2)ccc1N", "assignedCategory": 0.0}
{"molecule": "CCCc1c(O)c(=O)c2c(OC)cc(OC)c3c4c(OC)cc(OC)c5c(=O)c(O)c(CCC)c(c1c23)c54", "assignedCategory": 1.0}

====

- System: CAKI-1
- testProtocol: NCI tumour cell line growth inhibition, 48 h
Activity calls are given as the source filed them. No stated cut-off is given here; in the data, active = GI50 up to about 1.1 µM and inactive = higher.
Outcomes: active, inactive

{"molecule": "CC1CC(c2ccccc2)Nc2nc3ccccc3n21 (stereo unspecified)", "assignedCategory": "inactive"}
{"molecule": "Oc1ccc(-c2nc3cc(C(F)(F)F)ccc3s2)cc1", "assignedCategory": "inactive"}
{"molecule": "CC(C)N(CC(=O)O)CC(=O)O", "assignedCategory": "inactive"}
{"molecule": "CCOC(=O)CCSc1nc2ccc(I)cc2c(=O)n1Cc1ccccc1", "assignedCategory": "inactive"}
{"molecule": "Cc1ccc2nc(N/N=C/c3cccc(C)n3)cc(C)c2c1", "assignedCategory": "inactive"}
{"molecule": "COC1C(O)=C2C(=O)O/C(C)=C/C=C/C=C/C=C\\CC(c3ccccc3)NC(=O)\\C=C/C=C\\C=C\\C=C\\[C@@]2(C)[C@@H]1O (stereo partly specified)", "assignedCategory": "active"}

====

Items are presented alongside their recorded GI50.
- Tested on: Malme-3M
- testProtocol: NCI tumour cell line growth inhibition, 48 h
Active and inactive are the calls of the source. No stated cut-off is given here; in the data, active = GI50 up to about 1.1 µM and inactive = higher.

{"molecule": "N#CSc1[nH]cnc1C(N)=O", "GI50": "17.4 µM (inactive)"}
{"molecule": "COc1ccc(/C=C2\\CCNC2=O)cc1", "GI50": "> 100 µM (inactive)"}
{"molecule": "CCC(=O)OCOc1ccc(/C=C2\\CCC(CN(C)C)C2=O)cc1 (configuration not stated)", "GI50": "3.96 µM (inactive)"}
{"molecule": "C[N+]1(C)C/C(=C\\C=C\\c2ccccc2)C(=O)/C(=C/C=C/c2ccccc2)C1", "GI50": "16 µM (inactive)"}
{"molecule": "CCOC(=O)C1(C(=O)OCC)C[C@H](C)[C@](C)(O)C1", "GI50": "> 100 µM (inactive)"}
{"molecule": "CC12CCC(=O)N1[C@@H](c1ccccc1)[C@@H](c1ccccc1)O2 (some centres not stated)", "GI50": "> 100 µM (inactive)"}
{"molecule": "C=C1c2c(cc3c(c2O)c(=O)c2ccccc2n3C)OC1(C)C", "GI50": "> 100 µM (inactive)"}
{"molecule": "Clc1ccc(C(SCc2ccccc2)SCc2ccccc2)cc1", "GI50": "> 10 µM (inactive)"}
{"molecule": "Cc1ccc(-c2c(N)[n+]([O-])c3ccccc3[n+]2[O-])cc1", "GI50": "3.47 µM (inactive)"}
{"molecule": "O=C1C2=Cc3ccccc3OC2(O)Oc2cc(O)cc(O)c21 (configuration not stated)", "GI50": "> 100 µM (inactive)"}
{"molecule": "C=CCCC(=O)C(=[N+]=[N-])C(=O)CCC(=O)c1ccccc1", "GI50": "> 10 µM (inactive)"}
{"molecule": "C/C(=N\\Nc1nc2ccccc2[nH]1)c1cccc[n+]1[O-]", "GI50": "52.7 µM (inactive)"}
